Reference for the values: patent EP0528172A1

test system: hypotension induced by PAF; assay: Inhibition of the hypotensive effect induced by PAF in normotense rats; format: in vivo, Sprage Dawley rats; conditions: Rattus norvegicus, iv; anesthetized male rats; compound via femoral vein 3 min before PAF (0.5 mcg/Kg, i.v.); dose inhibiting PAF hypotension in a 50%; read-out: ID₅₀
Overview of recorded ED50 for various compounds
VALUE KIND: ED50 (mg/kg)

>  <COMPOUND>
Cc1ncccc1C(C#N)N1CCN(C(=O)CC(NC(=O)c2cccnc2)c2ccccc2)CC1 (stereo not shown)

>  <VALUE KIND>
ED50

>  <MEASURE UNIT>
mg/kg

>  <TEST VALUE>
0.029

$$$$
>  <COMPOUND>
Cc1ncccc1C(C#N)N1CCN(C(=O)CC(O)(c2ccccc2)C(F)(F)F)CC1 (stereo not shown)

>  <VALUE KIND>
ED50

>  <MEASURE UNIT>
mg/kg

>  <TEST VALUE>
0.013

$$$$
>  <COMPOUND>
Cc1ncccc1C(C#N)N1CCN(C(=O)CC(Nc2ccccc2)c2ccccc2)CC1 (stereo not shown)

>  <VALUE KIND>
ED50

>  <MEASURE UNIT>
mg/kg

>  <TEST VALUE>
0.042

$$$$
>  <COMPOUND>
Cc1ncccc1C(C#N)N1CCN(C(=O)CCNC(c2ccccc2)c2ccccc2)CC1 (stereo not shown)

>  <VALUE KIND>
ED50

>  <MEASURE UNIT>
mg/kg

>  <TEST VALUE>
0.044

$$$$
